# fitness annotations
# Test system: B. subtilis 168;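 further: OD595 on entry to stationary phase over no-drug wells; at most 1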
# TEST DETAILS: fitness (endpoint OD595 vs no drug) (fraction); higher = more growth
# ASSAY CONDITIONS: first compound 0.125 µg/mL; partner 0.25 µg/mL; one replicate
Give the value as a plain number.

-- ask Item under review: CC(=O)NC[C@H]1CN(c2ccc(N3CCOCC3)c(F)c2)C(=O)O1 [Linezolid] + CN(C)c1cc(NC(=O)CNC(C)(C)C)c(O)c2c1C[C@H]1C[C@H]3[C@H](N(C)C)C(O)=C(C(N)=O)C(=O)[C@@]3(O)C(O)=C1C2=O [Tigecycline] . Reported fitness?
-- reply 0.871

-- ask Item under review: CC(=O)NC[C@H]1CN(c2ccc(N3CCOCC3)c(F)c2)C(=O)O1 [Linezolid] + CO[C@@H]1[C@@H](OC(N)=O)[C@@H](O)[C@H](Oc2ccc3c(O)c(NC(=O)c4ccc(O)c(CC=C(C)C)c4)c(=O)oc3c2C)OC1(C)C [Novobiocin] . Reported fitness?
-- reply 0.727

-- ask Item under review: CO[C@@H]1[C@@H](OC(N)=O)[C@@H](O)[C@H](Oc2ccc3c(O)c(NC(=O)c4ccc(O)c(CC=C(C)C)c4)c(=O)oc3c2C)OC1(C)C [Novobiocin] + COc1cc(Cc2cnc(N)nc2N)cc(OC)c1OC [Trimethoprim] . Reported fitness?
-- reply 0.56

-- ask Item under review: CO[C@@H]1[C@@H](OC(N)=O)[C@@H](O)[C@H](Oc2ccc3c(O)c(NC(=O)c4ccc(O)c(CC=C(C)C)c4)c(=O)oc3c2C)OC1(C)C [Novobiocin] + CC1=C\[C@@H](O)CC(=O)Cc2nc(co2)C(=O)N2CCC=C2C(=O)O[C@H](C(C)C)[C@H](C)/C=C/C(=O)NC\C=C\1 [Virginiamycin M1] . Reported fitness?
-- reply 0.927

All values here come from the supplement of paper PMC10627819.
